target: His-tagged KRAS G12D protein (Homo sapiens (Human), UniProt P01116, G12D); test: KRAS G12D TR-FRET Assay; type: binding; conditions: read-out: KRAS G12D Binding IC50
Sequence (P01116 other isoform, or with tags, fused parts or gaps G12D): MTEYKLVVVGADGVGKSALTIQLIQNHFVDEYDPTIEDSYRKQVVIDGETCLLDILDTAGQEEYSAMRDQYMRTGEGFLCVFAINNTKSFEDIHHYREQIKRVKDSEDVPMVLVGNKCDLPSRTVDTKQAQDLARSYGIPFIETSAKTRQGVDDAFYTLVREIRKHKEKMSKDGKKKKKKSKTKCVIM
measuredAttribute: log10(IC50) (log10 of the value in nM)
Heads up, the numbers here are log10 of IC50 in nM units.

Return the recorded log10(IC50) value; entry: `C[C@@]12COCCN(C1)c1nc(OC[C@H]3CC[C@@H]4COCCN43)nc3c(F)c(ncc13)-c1c(c(Cl)cc3[nH]ncc13)CCCOC(=O)O2`
0.78

New cases:
Please give measured log10(IC50) of the following entry: `Cc1cc2[nH]ncc2c2c1CCCCCC(=O)N[C@]1(C)CCCN(C1)c1nc(OC[C@@]34CCCN3C[C@H](F)C4)nc3c(F)c-2ncc13`
1.63

Return log10(IC50) (reported value) for this compound: Cc1cc2[nH]ncc2c2c1CCC[C@H](F)C(=O)N[C@@H]1CCCN(C1)c1nc(OC[C@@]34CCCN3C[C@H](F)C4)nc3c(F)c-2ncc13 (mixture of isomers)
0.85

Give reported log10(IC50) value for `O=C1CCCOc2ccc3[nH]ncc3c2-c2ncc3c(nc(OC[C@@]45CCCN4C[C@H](F)C5)nc3c2F)N2CCC[C@H](C2)O1`
2.08

Provide only the value of recorded log10(IC50) for `O=C1CCCc2c(F)ccc3cccc(c23)-c2ncc3c(nc(OC[C@@]45CCCN4C[C@H](F)C5)nc3c2F)N2CCCC[C@H](C2)N1`
1.48

Return the recorded log10(IC50) value; entry: CN1C(=O)CCCCc2c(Cl)cc3[nH]ncc3c2-c2ncc3c(nc(OC[C@@]45CCCN4C[C@H](F)C5)nc3c2F)N2CCOCC1C2 (mixture of isomers)
1.99

###

biological target: His-tagged KRAS G12D protein (Homo sapiens (Human), UniProt P01116, G12D); assay: KRAS G12D TR-FRET Assay; type: binding; conditions: read-out: KRAS G12D Binding IC50
measuredAttribute: IC50 (nM)
Just the number please, in nM, no unit attached.

Completed entries (count: 5):
Check the records and state IC50 for O=C1CCCCc2c(Cl)cc3[nH]ncc3c2-c2ncc3c(nc(OC[C@@]45CCCN4C[C@H](F)C5)nc3c2F)N2CCCC[C@H](C2)O1 [Example 82]
2

Please report the measured IC50 for Fc1cc2[nH]ncc2c2c1CCCCOC[C@@H]1CCCCN(C1)c1nc(OC[C@@]34CCCN3C[C@H](F)C4)nc3c(F)c-2ncc13 [Example 239]
6

Return reported IC50. Input compound: O=C1OCCc2c(Cl)cc3[nH]ncc3c2-c2cc3nc(OC[C@@]45CCCN4C[C@H](F)C5)nc(c3cn2)N2CCC[C@]3(C2)C[C@H](C3)O1 [Example 343]
22

Return reported IC50. Input compound: Cc1cc2[nH]ncc2c2c1CCCCC(=O)OC1CN(CC3(CC3)C1)c1nc(OC[C@@]34CCCN3C[C@H](F)C4)nc3c(F)c-2ncc13 (mixture of isomers) [Example 80]
55

Return the recorded IC50 value; entry: Cc1cc2[nH]ncc2c2c1CCOC(=O)O[C@H]1C[C@@]3(CCCN(C3)c3nc(OC[C@@H]4CCCN4C)nc4c(F)c-2ncc34)C1 (single isomer, unassigned) [Example 325]
99

Continuing:
Read the entry O=C1OCCCc2c(Cl)cccc2-c2ncc3c(nc(OC[C@@]45CCCN4C[C@H](F)C5)nc3c2F)N2CCOC[C@H](C2)O1 [Example 186] and write its reported IC50.
12

Return the recorded IC50 value; entry: C[C@@]12CCCN(C1)c1nc(OC[C@@]34CCCN3C[C@H](F)C4)nc3c(F)c(ncc13)-c1cc(O)cc3cccc(c13)CCCC(=O)N2 [Example 3, bis(2,2,2-trifluoroacetate)]
1

Entry O=C1OCCc2c(F)cc3[nH]ncc3c2-c2ncc3c(nc(OC[C@@]45CCCN4C[C@H](F)C5)nc3c2F)N2CCC[C@]3(C2)C[C@H](C3)O1 [Example 356] needs its IC50 filled in; supply it.
4
